Target: Albumin (Bos taurus)
Experiment: bovine serum albumin binders on microarray, profiling panel, artefact control for SMM control protein annotation, biochemical, small-molecule microarray, Alexa647 label, 635/667 nm fluorescence (AID 1118);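 note: score merges 667 nm emission intensity and signal-to-noise per printed compound spot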
Conditions: BSA-A647 binding, fluorescence 635 nm, higher = more signal
Returns rule met if the recorded composite z-score is greater than or equal to 0.09, and rule not met otherwise.

Solved cases (3 shown):
compound	measured-on	group
O=C1[C@H]2[C@H]3[C@H](O)[C@H](O)CC(=NOCc4ccccc4)[C@H]3CC[C@H]2C(=O)N1Cc1ccccc1	Albumin (Bos taurus)	rule met
CCOC(=O)CCN1C(=O)[C@H]2[C@H]3[C@H](O)[C@H](O)CC(=NNC(=O)OCC)[C@@H]3CC[C@H]2C1=O	Albumin (Bos taurus)	rule met
CCOC(=O)[C@H](Cc1ccccc1)NC(=O)CCC1CC(OC(=O)NCc2cccc3ccccc23)CC2(CCCC(COC(=O)NCCCN3CCCC3=O)O2)O1 (stereo partly drawn)	Albumin (Bos taurus)	rule not met

Query :: Given C[C@@H]1CC[C@@H](C(=O)O)N[C@H]1c1ccc(-c2ccco2)cc1 , state whether its composite z-score is at least 0.09.
Result :: rule not met

Query :: // same read-out, input: CC(C)=NOCc1ccc(-c2cn([C@@H]3COC[C@H]3O)nn2)cc1
Result :: rule met

Query :: // same read-out, input: C[C@@H](ON=C1[C@H]2CCn3c(=O)n(-c4ccccc4)c(=O)n3[C@H]2[C@H](O)[C@@H]2O[C@H]12)c1cn([C@H](CO)Cc2ccccc2)nn1
Result :: rule not met

Query :: // same read-out, input: CC(C)CON=C1C[C@@H](O)[C@@H](O)[C@@H]2[C@@H]3C(=O)N(c4cccc(Oc5ccccc5)c4)C(=O)[C@@H]3CC[C@H]12
Result :: rule met

Query :: // same read-out, input: CC(C)=NOC[C@@H](O)COCc1ccco1
Result :: rule not met

* * *

Tested on: Human papillomavirus type 1a protein E7 (residues 44-93)
Experiment: HPV1a E7 fragment binders on microarrays, primary screen, biochemical, small-molecule microarray, residues 44-93, 635 nm fluorescence (AID 1108);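 note: E7 fragment applied at 1 µg/mL in TBST for 1 h at 4 C; score combines spot fluorescence with its signal to noise ratio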
Settings: small-molecule microarray binding, fluorescence 635 nm; higher = more signal
The molecules listed here are annotated with their composite z-score.
Number only, no unit.

molecule	composite z-score
CCOC(=O)[C@H](CC(C)C)NC(=O)CCC1CC(OC(=O)NCc2cccc3ccccc23)CC2(CCCC(COC(=O)NCc3ccccc3)O2)O1 (some centres not stated)	-0.931
CCOC(=O)[C@H](Cc1ccccc1)NC(=O)CCC1CC(OC(=O)NCc2cccc3ccccc23)CC2(CCCC(COC(=O)NCCCN3CCCC3=O)O2)O1 (some centres not stated)	1.28
Cc1cc2c(nc1C)CCCN2CC(C)ON=C[C@@H](C)[C@H](OCc1ccccc1)C(C)C (some centres not stated)	-1.88

Query :: GET /values?readout=composite z-score&system=Human papillomavirus type 1a protein E7 (residues 44-93)&item= CO[C@H]1COC(=O)[C@H](C)NC(=O)CC=C[C@@H](C)[C@H](OC)COC(=O)CC=C[C@@H]1C
Result :: -1.05

Query :: // same read-out, input: CCOC(=O)CCN1C(=O)[C@H]2[C@H]3[C@H](O)[C@H](O)CC(=NNC(=O)OCC)[C@@H]3CC[C@H]2C1=O
Result :: 0.582

Query :: // same read-out, input: CO[C@@H]1COC(=O)CC=C[C@H](C)COC(=O)[C@H](C)NC(=O)CC=C[C@H]1C
Result :: -0.103

Query :: // same read-out, input: O=C1[C@H]2[C@H]3[C@H](O)[C@H](O)CC(=NOCc4ccccc4)[C@H]3CC[C@H]2C(=O)N1Cc1ccccc1
Result :: -0.424
